Target: RUNX2 (Homo sapiens)
Sequence (Q13950 whole entry): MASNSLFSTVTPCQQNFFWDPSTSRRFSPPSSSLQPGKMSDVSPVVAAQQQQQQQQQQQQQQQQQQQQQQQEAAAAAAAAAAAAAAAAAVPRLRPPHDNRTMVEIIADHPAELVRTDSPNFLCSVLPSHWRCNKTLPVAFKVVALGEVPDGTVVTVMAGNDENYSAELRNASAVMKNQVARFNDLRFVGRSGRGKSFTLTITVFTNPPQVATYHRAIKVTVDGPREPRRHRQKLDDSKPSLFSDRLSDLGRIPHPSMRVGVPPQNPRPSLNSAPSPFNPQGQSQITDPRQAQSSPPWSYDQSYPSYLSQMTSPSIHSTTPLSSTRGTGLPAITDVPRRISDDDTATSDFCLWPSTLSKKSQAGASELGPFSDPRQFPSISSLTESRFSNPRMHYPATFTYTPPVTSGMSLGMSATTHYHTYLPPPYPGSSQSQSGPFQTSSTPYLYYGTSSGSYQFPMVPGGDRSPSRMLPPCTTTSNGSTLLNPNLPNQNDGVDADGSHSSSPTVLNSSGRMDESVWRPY
Test: D-ELISA DNA binding assay
Settings: read-out: IC50 in D-ELISA DNA binding assays (RUNX2 DNA binding)
pIC50: −log10 of the molar value.
QUANTITY_NAME: pIC50

>>> recorded_result("O=C(O)C1C2C=CC(C2)C1C(=O)Nc1ccc(Cl)c(Cl)c1 (stereo not shown) [compound 1]")
8.00
